# Recovery time values compiled below
- Tested on: New Zealand white rabbits
- assay_notes: Experiment on muscle relaxation in anesthetized rabbits (TOF neuromuscular transmission monitor)
- Type: in vivo, rabbit
- condition: TOF=90%, after i.v. 2× ED95 equivalent dose, N = 8

molecule	result_units	Recovery time
C[N+](C)(C)CCOC(=O)CCC(=O)OCC[N+](C)(C)C [Succinylcholine, reference compound]	min	13.3
C[N+](CCOC(=O)OCOC(=O)CCC[N+]1(Cc2ccc([N+](=O)[O-])cc2)CCCCC1)(Cc1ccc([N+](=O)[O-])cc1)Cc1c(F)cccc1F (stereo not drawn) [Compound 6]	min	4.1
CC1CC[N+](CCCC(=O)OCOC(=O)OCC[N+](C)(Cc2ccccc2)Cc2ccc([N+](=O)[O-])cc2)(Cc2ccc([N+](=O)[O-])cc2)CC1 (stereo not drawn) [Compound 35]	min	7.2
C[N+](CCOC(=O)OCOC(=O)CCC[N+]1(Cc2ccc([N+](=O)[O-])cc2)CCCCC1)(Cc1ccc(F)cc1)Cc1ccc([N+](=O)[O-])cc1 (stereo not drawn) [Compound 3]	min	4.8
C[N+](CCOC(=O)OCOC(=O)COCC[N+]1(Cc2ccc([N+](=O)[O-])cc2)CCCCC1)(Cc1ccccc1)Cc1ccc([N+](=O)[O-])cc1 (stereo not drawn) [Compound 19]	min	4.1
C[N+](CCOC(=O)OCOC(=O)C[N+]1(Cc2ccc([N+](=O)[O-])cc2)CCCCC1)(Cc1ccccc1)Cc1ccc([N+](=O)[O-])cc1 (stereo not drawn) [Compound 2]	min	6.4
C[N+](CCOC(=O)OCOC(=O)CCC[N+]1(Cc2ccc([N+](=O)[O-])cc2)CCCCC1)(Cc1ccc([N+](=O)[O-])cc1)Cc1ccsc1 (stereo not drawn) [Compound 38]	min	4.4
C[N+](CCOC(=O)OCOC(=O)CCC[N+]1(Cc2ccc([N+](=O)[O-])cc2)CCCCC1)(Cc1ccc([N+](=O)[O-])cc1)Cc1ccc(Cl)cc1Cl (stereo not drawn) [Compound 5]	min	5.2
C[N+](CCOC(=O)OCOC(=O)CCC[N+]1(Cc2ccc([N+](=O)[O-])cc2)CCCCC1)(Cc1ccc([N+](=O)[O-])cc1)Cc1ccc([N+](=O)[O-])cc1 [Compound 7]	min	5.2
C[N+](CCOC(=O)OCOC(=O)CCC[N+]1(Cc2ccc([N+](=O)[O-])cc2)CCCC1)(Cc1ccc(F)cc1)Cc1ccc([N+](=O)[O-])cc1 (stereo not drawn) [Compound 47]	min	3.1
C[N+](CCOC(=O)OCOC(=O)CCC[N+]1(Cc2ccc([N+](=O)[O-])cc2)CCC(F)(F)CC1)(Cc1ccccc1)Cc1ccc([N+](=O)[O-])cc1 (stereo not drawn) [Compound 45]	min	5.1
COc1ccc(C[N+](C)(CCOC(=O)OCOC(=O)CCC[N+]2(Cc3ccc(OC)c(OC)c3)CCCCC2)Cc2ccc(OC)c(OC)c2)cc1OC [Compound 12]	min	6.3
